# Measured target: Sentrin-specific protease 6 (Homo sapiens);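 also: Luminescence-based dose-response confirmatory assay of SENP6 inhibition, following up an ultra-high-throughput screen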
# Sequence (Q9GZR1 whole entry): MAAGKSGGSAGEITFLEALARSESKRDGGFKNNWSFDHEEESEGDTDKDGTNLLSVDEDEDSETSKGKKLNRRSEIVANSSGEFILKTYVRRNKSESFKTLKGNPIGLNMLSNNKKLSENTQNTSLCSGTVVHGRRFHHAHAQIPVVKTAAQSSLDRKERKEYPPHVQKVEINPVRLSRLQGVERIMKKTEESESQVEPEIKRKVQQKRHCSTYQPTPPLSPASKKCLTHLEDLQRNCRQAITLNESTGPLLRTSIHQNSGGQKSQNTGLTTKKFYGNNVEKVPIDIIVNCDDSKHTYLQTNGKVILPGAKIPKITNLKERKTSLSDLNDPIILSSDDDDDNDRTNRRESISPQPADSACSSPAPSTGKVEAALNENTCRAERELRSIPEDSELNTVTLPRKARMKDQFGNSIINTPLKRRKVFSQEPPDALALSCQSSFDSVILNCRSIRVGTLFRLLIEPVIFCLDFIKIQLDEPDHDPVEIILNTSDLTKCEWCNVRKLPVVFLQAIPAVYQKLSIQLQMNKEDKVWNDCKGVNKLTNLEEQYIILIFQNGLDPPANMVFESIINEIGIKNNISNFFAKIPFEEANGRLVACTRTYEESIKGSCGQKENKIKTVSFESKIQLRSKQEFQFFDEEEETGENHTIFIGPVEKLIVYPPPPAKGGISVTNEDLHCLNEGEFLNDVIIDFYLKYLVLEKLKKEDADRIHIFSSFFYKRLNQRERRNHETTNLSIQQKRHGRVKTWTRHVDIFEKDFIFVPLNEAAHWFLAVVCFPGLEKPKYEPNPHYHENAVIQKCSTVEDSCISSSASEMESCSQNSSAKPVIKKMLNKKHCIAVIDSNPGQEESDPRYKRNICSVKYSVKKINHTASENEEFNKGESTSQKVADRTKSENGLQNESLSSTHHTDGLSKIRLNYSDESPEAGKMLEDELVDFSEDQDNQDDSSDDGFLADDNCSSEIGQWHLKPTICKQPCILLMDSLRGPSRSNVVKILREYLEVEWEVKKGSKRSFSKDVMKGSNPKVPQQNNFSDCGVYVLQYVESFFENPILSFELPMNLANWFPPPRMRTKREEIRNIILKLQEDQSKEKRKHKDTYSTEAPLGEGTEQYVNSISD
# Type: functional
Calls of active or inactive are those of the source.
Classes used: active, inactive

>>> class("N#Cc1c(N2CCCCC2)nc(N)c2c(N)nc(SCC(=O)O)cc12")
"active"
>>> class("CCO/C=C1\\C(=O)N(c2ccccc2)C(=O)c2ccccc21")
"active"
>>> class("O=C(Nc1ccc(-c2noc(-c3cccs3)n2)cc1)c1cccnc1")
"active"
>>> class("CN1CC[C@@]2(C)c3cc(O)ccc3N(C)C2O1 (some centres undefined)")
"active"
>>> class("Cc1csc(NC(=O)c2ccc3ccccc3n2)n1")
"active"
>>> class("CSc1ccc(/C=C/C(=O)c2ccc(O)cc2)cc1")
"active"
>>> class("COc1ccccc1-n1c(=O)oc2ccc(Cl)cc2c1=O")
"active"
>>> class("C=CCn1c2ccccc2c(=O)c2cc(C#Cc3ccccn3)ccc21")
"active"
>>> class("COc1ccc(NC(=O)c2csc3c2CCCC3)cc1")
"inactive"

Just for reference, ChEMBL document CHEMBL1201862 is where these values come from.
